target: PDE1A (Homo sapiens (Human)); assay: biochemical; type: biochemical; conditions: 15 nM tritium labelled cAMP, 1 hr at room temperature, SPA beads
Class assignment keyed on IC50, ranges low bin = under 8 nM, mid bin = from 8 nM up to 20 nM, high bin = 20 nM and over

Take a look at these entries with their results.
> print(dat)
                                   molecule  assigned.category
1  CCOc1ncccc1-c1cc(NCc2nnc(C)o2)c2c(cnn2C(C)CC)n1 (single isomer, unassigned) [Example 138]           high bin
2  CCCOc1ncccc1-c1cc(NCc2nnn(C)n2)c2c(n1)c(C)nn2C(C)C            low bin
3  CCOc1ncccc1-c1cc(NCc2nn[nH]n2)c2c(n1)c(C)nn2C(C)C            low bin
4  COc1ncccc1-c1cc(NCc2cnn(C)c2)c2c(n1)c(C)nn2C(C)C            mid bin
5  CCOc1ncccc1-c1cc(NCc2c[nH]cn2)c2c(n1)c(C)nn2C(C)CC (single isomer, unassigned)            mid bin

Using the reported IC50, which band applies to "CCOc1ncccc1-c1cc(NCc2cccn(C)c2=O)c2c(n1)c(C)nn2C(C)C" ?
low bin

Using the reported IC50, which band applies to "COc1ccc(CNc2cc(-c3cccnc3OC)nc3c(C)nn(C(C)C)c23)cn1" ?
mid bin

Using the reported IC50, which band applies to "CCOc1ncccc1-c1cc(NCc2cccc(C(F)(F)F)n2)c2c(n1)c(C)nn2C(C)C" ?
high bin

Using the reported IC50, which band applies to "CCOc1ncccc1-c1cc(NCc2cc(OC)ccn2)c2c(n1)c(C)nn2C(C)C" ?
low bin

Using the reported IC50, which band applies to "CCOc1ncccc1CNc1cc(-c2cccnc2OCC)nc2c(C)nn(C(C)C)c12" ?
high bin

Using the reported IC50, which band applies to "CCOc1ncccc1-c1cc(NCc2cnc(C)s2)c2c(n1)c(C)nn2C(C)C" ?
low bin

* * *

Catalogue of IC50 values
biological target: PDE1C (Homo sapiens (Human)); test: biochemical; assay type: biochemical; conditions: 15 nM tritium labelled cAMP, 1 hr at room temperature, SPA beads
Give the quantity in µM, number only.

Illustrative cases are given below, each with its answer.
> print(dat)
                                   compound  assay.value
1  Cc1nn(C(C)C)c2c(NCc3cccnc3C(F)(F)F)cc(-c3ccc[nH]c3=O)nc12 [Example 193]         0.88
2  COc1ccc(CNc2cc(-c3cccnc3N(C)C)nc3c(C)nn(C(C)C)c23)cc1 [Example 192]         0.49
3  Cc1nn(C(C)C)c2c(NCc3cnn(C)c3)cc(N3C(=O)OCC3C)nc12 (centres unmarked) [Example 155]       0.0039
4  CCOc1ncccc1-c1cc(NCc2ccc(F)nc2)c2c(n1)c(C)nn2C(C)C [Example 116]        0.046
5  Cc1csc(-c2cc(NCc3cnn(C)c3)c3c(n2)c(C)nn3C(C)C)n1 [Example 149]        0.069

Value lookup for IC50; key = COc1ncccc1CNc1cc(-c2cccnc2C(F)(F)F)nc2c(C)nn(C(C)C)c12 [Example 183]
0.35

Value lookup for IC50; key = CCOc1ncccc1-c1cc(NCc2cncc(OC)n2)c2c(n1)c(C)nn2C(C)C [Example 82]
0.035

Value lookup for IC50; key = CCOc1ncccc1-c1cc(NCc2ccnc(C)n2)c2c(n1)c(C)nn2C(C)C [Example 105]
0.15

* * *

target: PDE1B (Homo sapiens (Human), UniProt Q01064); assay: PDE1 inhibition assay (PDE1B); type: biochemical; details: 15 nM tritium labelled cAMP, 1 hr at room temperature, SPA beads; read-out: PDE1B, IC50
Sequence (Q01064 whole entry): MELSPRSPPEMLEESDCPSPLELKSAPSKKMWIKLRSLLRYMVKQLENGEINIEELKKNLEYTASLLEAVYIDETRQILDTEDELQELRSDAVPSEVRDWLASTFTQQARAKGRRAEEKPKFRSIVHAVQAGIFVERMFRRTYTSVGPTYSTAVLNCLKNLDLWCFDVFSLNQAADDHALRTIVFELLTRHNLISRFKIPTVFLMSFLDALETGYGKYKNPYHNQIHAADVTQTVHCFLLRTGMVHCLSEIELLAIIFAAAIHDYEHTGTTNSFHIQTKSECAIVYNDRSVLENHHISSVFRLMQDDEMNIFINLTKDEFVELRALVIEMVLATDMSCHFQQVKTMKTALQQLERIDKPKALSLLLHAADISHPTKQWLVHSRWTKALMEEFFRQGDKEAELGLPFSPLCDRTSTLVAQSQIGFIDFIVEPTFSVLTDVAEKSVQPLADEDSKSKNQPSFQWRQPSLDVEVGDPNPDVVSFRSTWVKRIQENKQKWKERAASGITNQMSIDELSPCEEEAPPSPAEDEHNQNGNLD
Sorting guide: entries reporting IC50 beneath 1 nM go in the condition met pile, the rest go in the condition not met pile.

> print(dat)
                               given.smiles  assigned.category
1  CCCOc1ncccc1-c1cc(NCc2cn(C)cn2)c2c(n1)c(C)nn2C(C)C      condition met

Then this compound:
Identify whether the compound "CCOc1ncccc1-c1cc(NCc2cnc(OC)cn2)c2c(n1)c(C)nn2C(C)C" records IC50 below 1 nM.
condition not met

* * *

target: PDE1C (Homo sapiens (Human)); assay: biochemical; type: biochemical; conditions: 15 nM tritium labelled cAMP, 1 hr at room temperature, SPA beads
Measure name: IC50 (nM)
Give the quantity in nM, number only.

Illustrative cases are given below, each with its answer.
> print(dat)
                                   molecule  measure.name  result.unit  assay.value
1  CCOc1ncccc1-c1cc(NCc2cccc(C)c2)c2c(cnn2C(C)C)n1          IC50           nM          750
2  CCOc1ncccc1-c1cc(NCc2c[nH]cn2)c2c(n1)c(C)nn2C(C)C          IC50           nM           32
3  CCCOc1ncccc1-c1cc(NCc2ncn(C)n2)c2c(n1)c(C)nn2C(C)C          IC50           nM          1.2
4  Cc1nn(C(C)C)c2c(NCc3cnn(C)c3)cc(-c3cccn(C)c3=O)nc12          IC50           nM          420
5  Cc1nn(C(C)C)c2c(NCc3ncn(C)n3)cc(-c3ccc[nH]c3=O)nc12          IC50           nM          130

Value lookup for IC50; key = "CCOc1ncccc1-c1cc(NCc2cccnc2OC)c2c(n1)c(C)nn2C1COC1"
190

Value lookup for IC50; key = "CCOc1ncccc1-c1cc(NCc2noc(C)n2)c2c(cnn2C(C)C)n1"
80

Value lookup for IC50; key = "Cc1coc(-c2cc(NCc3cnn(C)c3)c3c(n2)c(C)nn3C(C)C)n1"
170

* * *

biological target: UniProt:Q01064; test: PDE1 inhibition assay (PDE1B); format: biochemical; settings: 15 nM tritium labelled cAMP, 1 hr at room temperature, SPA beads; read-out: PDE1B, IC50
Measure name: IC50

Illustrative cases are given below, each with its answer.
> print(dat)
                               given.smiles  assay.value
1  COc1ccc(CNc2cc(-c3cccnc3OC)nc3c(C)nn(C(C)C)c23)cn1       3.8 nM
2  COc1ncccc1CNc1cc(-c2cccnc2C(F)(F)F)nc2c(C)nn(C(C)C)c12        38 nM
3  Cc1nn(C(C)C)c2c(NCc3cnn(C)c3)cc(-c3cccnc3OC(C)C)nc12       0.6 nM

Shift focus to the following entry.
Value lookup for IC50; key = "CCOc1ncccc1-c1cc(NCc2cnn(CC)c2)c2c(n1)c(C)nn2C(C)C"
0.66 nM

* * *

target: PDE1C (Homo sapiens (Human), UniProt Q14123); test: biochemical; format: biochemical; details: 15 nM tritium labelled cAMP, 1 hr at room temperature, SPA beads
Sequence (Q14123 whole entry): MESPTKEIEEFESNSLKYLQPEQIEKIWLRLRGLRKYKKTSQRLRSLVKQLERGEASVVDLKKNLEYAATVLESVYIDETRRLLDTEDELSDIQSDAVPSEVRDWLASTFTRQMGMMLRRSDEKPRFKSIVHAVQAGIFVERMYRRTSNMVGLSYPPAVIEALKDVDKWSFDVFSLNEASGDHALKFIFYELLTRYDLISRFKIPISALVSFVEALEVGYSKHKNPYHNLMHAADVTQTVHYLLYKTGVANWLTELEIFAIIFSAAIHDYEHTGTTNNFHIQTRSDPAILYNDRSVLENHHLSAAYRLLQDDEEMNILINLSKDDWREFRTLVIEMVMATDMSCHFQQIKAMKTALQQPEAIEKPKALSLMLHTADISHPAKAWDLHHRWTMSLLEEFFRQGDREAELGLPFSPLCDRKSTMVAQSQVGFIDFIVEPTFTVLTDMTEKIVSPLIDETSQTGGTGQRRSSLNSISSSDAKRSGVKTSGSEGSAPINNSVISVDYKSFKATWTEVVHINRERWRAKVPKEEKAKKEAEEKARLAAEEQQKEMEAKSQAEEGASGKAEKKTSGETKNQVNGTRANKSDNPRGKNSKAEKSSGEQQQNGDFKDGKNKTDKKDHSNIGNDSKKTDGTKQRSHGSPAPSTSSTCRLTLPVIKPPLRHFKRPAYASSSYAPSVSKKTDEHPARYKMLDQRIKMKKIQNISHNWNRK
Catalogue of pIC50 values
Scale explanation: pIC50 corresponds to minus log10 of a concentration expressed in moles per litre.

> print(dat)
                                   compound  assay.value
1  CCOc1ncccc1-c1cc(CCc2cncc(OC)c2)c2c(n1)c(C)nn2C(C)C [Example 159]         5.80

Value lookup for pIC50; key = CCOc1ncccc1-c1cc(NCc2ccccn2)c2c(n1)c(C)nn2C(C)C [Example 100]
7.68

Value lookup for pIC50; key = Cc1nn(C(C)C)c2c(NCc3cnn(C)c3)cc(N3CCOC3=O)nc12 [Example 151]
7.92

Value lookup for pIC50; key = CCOc1ncccc1-c1cc(NCc2cnn(C)c2)c2c(cnn2C2COC2)n1 [Example 14]
6.52

Value lookup for pIC50; key = CCOc1ncccc1-c1cc(NCc2cccn(C)c2=O)c2c(n1)c(C)nn2C(C)C [Example 108]
7.92

Value lookup for pIC50; key = Cc1nn(C(C)C)c2c(NCc3cnn(C)c3)cc(N3CC(C)OC3=O)nc12 (centres unmarked) [Example 150]
7.89

Value lookup for pIC50; key = CCOc1ncccc1-c1cc(NCc2ccnc(OC)c2)c2c(n1)c(C)nn2C(C)C [Example 104]
8.20

Value lookup for pIC50; key = CCCOc1ncccc1-c1cc(NCc2cc[nH]n2)c2c(n1)c(C)nn2C(C)C [Example 143]
8.04

* * *

molecular target: PDE1A (Homo sapiens (Human), UniProt P54750); experiment: biochemical; type: biochemical; conditions: 15 nM tritium labelled cAMP, 1 hr at room temperature, SPA beads
Sequence (P54750 whole entry): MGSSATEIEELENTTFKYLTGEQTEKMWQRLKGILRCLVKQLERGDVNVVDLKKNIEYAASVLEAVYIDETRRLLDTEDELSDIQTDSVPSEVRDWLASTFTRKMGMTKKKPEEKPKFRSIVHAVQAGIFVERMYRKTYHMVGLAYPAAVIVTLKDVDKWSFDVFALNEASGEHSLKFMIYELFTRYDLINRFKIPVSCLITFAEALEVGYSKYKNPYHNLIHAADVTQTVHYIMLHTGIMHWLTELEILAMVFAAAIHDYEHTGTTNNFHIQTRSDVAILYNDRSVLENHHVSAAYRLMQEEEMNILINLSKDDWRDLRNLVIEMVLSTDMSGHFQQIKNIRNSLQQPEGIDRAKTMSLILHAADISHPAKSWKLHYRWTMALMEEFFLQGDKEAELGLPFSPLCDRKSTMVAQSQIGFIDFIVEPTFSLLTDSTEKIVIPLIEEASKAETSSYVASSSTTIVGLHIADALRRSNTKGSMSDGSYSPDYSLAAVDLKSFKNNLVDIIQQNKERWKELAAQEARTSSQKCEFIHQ
Measure name: IC50 (nM)
Give the quantity in nM, number only.

Illustrative cases are given below, each with its answer.
> print(dat)
                               given.smiles  result.unit  assay.value
1  CCOc1ncccc1-c1cc(NCc2cccc(C)c2)c2c(cnn2C(C)C)n1           nM          240
2  CCOc1ncccc1-c1cc(CNc2ncn(C)n2)c2c(n1)c(C)nn2C(C)C           nM           23

Value lookup for IC50; key = "CCOc1ncccc1-c1cc(NCc2nnc(C)s2)c2c(n1)c(C)nn2C(C)C"
1.6

Value lookup for IC50; key = "CCOc1ncccc1-c1cc(NCc2noc(C)n2)c2c(cnn2C(C)C)n1"
30

Value lookup for IC50; key = "CCOc1ncccc1-c1cc(NCc2ccnc(OC)c2)c2c(n1)c(C)nn2C(C)C"
2.2

Value lookup for IC50; key = "Cc1ncoc1-c1cc(NCc2cnn(C)c2)c2c(n1)c(C)nn2C(C)C"
98

Value lookup for IC50; key = "Cc1nn(C(C)C)c2c(NCc3cnn(C)c3)cc(N3CCN(C(C)(C)C)C3=O)nc12"
130

Value lookup for IC50; key = "CCOc1ncccc1-c1cc(NCc2cccnc2)c2c(n1)c(C)nn2C(C)C"
15
